A collection of molecules and their measured residual activity
# study system: Protein kinase C epsilon type (Homo sapiens)
# condition summary: at 10 µM
Lab book: enter the figure in %, no units written.

Some entries whose results are on file:
[[record]]
compound_structure = "COc1cc2ncnc(Nc3ccc(O)c(Br)c3)c2cc1OC"
measured_value = 83

[[record]]
compound_structure = "CO[C@H]1[C@@H](OC)C[C@H](C)[C@@H](OC)C2=CC(=O)C=C(NC(=O)/C(C)=C/C=C/[C@H](OC)[C@@H](OC(N)=O)/C(C)=C/[C@@H]1C)C2=O"
measured_value = 102

[[record]]
compound_structure = "COc1ccc(S(=O)(=O)N(CCO)c2ccccc2CN(C)C/C=C/c2ccc(Cl)cc2)cc1"
measured_value = 93

[[record]]
compound_structure = "c1ccc2c(-c3ccncc3)c[nH]c2c1"
measured_value = 55

[[record]]
compound_structure = "COc1cc2ncnc(Nc3ccc(Oc4ccccc4)cc3)c2cc1OC"
measured_value = 89


Q) Bench note: what residual activity did `Oc1c2ccccc2c2c3c(cccc13)N=N2` show?
A) 84

Q) Continue with `Nc1ccc2ncnc(NCCc3ccc(Oc4ccccc4)cc3)c2c1`
A) 126

Q) Continue with `O=c1c2ccccc2[nH]c(=S)n1CCN1CCC(=C(c2ccc(F)cc2)c2ccc(F)cc2)CC1`
A) 93

Q) Continue with `CC[n+]1c(/C=C/N(C)c2ccccc2)n(-c2ccccc2)c2ccc(-c3nc4ccccc4s3)cc21`
A) 107

Q) Continue with `Cc1ccc(NC2=CC(=O)c3sc(C)nc3C2=O)cc1`
A) 94

Q) Continue with `N#C/C(=C(\N)Sc1ccc(N)cc1)c1ccccc1C(F)(F)F`
A) 106

Q) Continue with `Cc1cncc2cccc(S(=O)(=O)N3CCCN(C(=O)CN)C[C@H]3C)c12`
A) 23

Q) Continue with `Cc1cccc(-c2[nH]c(C(C)(C)C)nc2-c2ccc3c(c2)OCO3)n1`
A) 91

Q) Continue with `CNc1cc2c(Nc3cccc(Br)c3)ncnc2cn1`
A) 99

Q) Continue with `CC(C)n1cnc2/c(=N/c3cccc(Cl)c3)nc(NCCO)[nH]c21`
A) 92

Q) Continue with `O=C1c2ccccc2-[n+]2ccc3c([nH]c4ccccc43)c21`
A) 94

Q) Continue with `c1ccc(-c2n[nH]cc2-c2ccnc3ccccc23)nc1`
A) 89

Q) Continue with `c1ccc(-c2n[nH]c3c2oc2ccccc23)cc1`
A) 88

Q) Continue with `CCOc1cc2ncnc(Nc3cccc(Br)c3)c2cc1OCC`
A) 100

Q) Continue with `Oc1ccc(Nc2nc(-c3ccc(Cl)cc3)cs2)cc1`
A) 112

Attribution: ChEMBL document CHEMBL2218924
